# Tested on: upland rice (Oryza sp., var. Tebonnet, RICE)
# Assay info: Pre-emerge test, crop safety
# Assay type: in vivo
# Experimental parameters: 63 g ai/ha; rating scale 0-100, 14 days after application
# maps each entry to its Pre-emerge phytotoxicity rating, crop damage RICE
I only need the number, thanks.

Below: 5 compounds and their reported Pre-emerge phytotoxicity rating, crop damage RICE.
| Compound | Observed value |
| --- | --- |
| COc1c(Cl)cc(F)c(-n2c(=O)cc(C(F)(F)F)n(C)c2=O)c1CC(Cl)C(=O)OCC(F)(F)F (centres unmarked) | 0 |
| C=COC(=O)C(C)(Cl)Cc1c(OC)c(Cl)cc(F)c1-n1c(=O)cc(C(F)(F)F)n(C)c1=O (centres unmarked) | 10 |
| CCCCCCOC(=O)C(C)(Cl)Cc1c(OC)c(Cl)cc(F)c1-n1c(=O)cc(C(F)(F)F)n(C)c1=O (centres unmarked) | 0 |
| CCCCOC(=O)C(Cl)Cc1c(OC)c(Cl)cc(F)c1-n1c(=O)cc(C(F)(F)F)n(C)c1=O (single isomer, unassigned) [14-8] | 0 |
| C#CCOC(=O)C(Cl)Cc1c(OC)c(Cl)cc(F)c1-n1c(=O)cc(C(F)(F)F)n(C)c1=O (single isomer, unassigned) [14-19] | 0 |

Lookup: Missing value: Pre-emerge phytotoxicity rating, crop damage RICE, upland rice (Oryza sp., var. Tebonnet, RICE), entry CCOCCOC(=O)C(Cl)Cc1c(OC)c(Cl)cc(F)c1-n1c(=O)cc(C(F)(F)F)n(C)c1=O (centres unmarked) . Fill in?
Found: 0

Lookup: Missing value: Pre-emerge phytotoxicity rating, crop damage RICE, upland rice (Oryza sp., var. Tebonnet, RICE), entry CCOC(=O)C(Br)Cc1c(OC)c(Cl)cc(F)c1-n1c(=O)cc(C(F)(F)F)n(C)c1=O (single isomer, unassigned) [14-33] . Fill in?
Found: 0

Lookup: Missing value: Pre-emerge phytotoxicity rating, crop damage RICE, upland rice (Oryza sp., var. Tebonnet, RICE), entry CCCCCOC(=O)C(C)(Cl)Cc1c(OC)c(Cl)cc(F)c1-n1c(=O)cc(C(F)(F)F)n(C)c1=O (centres unmarked) . Fill in?
Found: 0

Lookup: Missing value: Pre-emerge phytotoxicity rating, crop damage RICE, upland rice (Oryza sp., var. Tebonnet, RICE), entry CCCOC(=O)C(C)(Cl)Cc1c(OC)c(Cl)cc(F)c1-n1c(=O)cc(C(F)(F)F)n(C)c1=O (centres unmarked) . Fill in?
Found: 0

Lookup: Missing value: Pre-emerge phytotoxicity rating, crop damage RICE, upland rice (Oryza sp., var. Tebonnet, RICE), entry COc1c(Cl)cc(F)c(-n2c(=O)cc(C(F)(F)F)n(C)c2=O)c1CC(C)(Cl)C(=O)OCC(F)(F)C(F)F (centres unmarked) . Fill in?
Found: 10

Lookup: Missing value: Pre-emerge phytotoxicity rating, crop damage RICE, upland rice (Oryza sp., var. Tebonnet, RICE), entry COc1c(Cl)cc(F)c(-n2c(=O)cc(C(F)(F)F)n(C)c2=O)c1CC(Cl)C(=O)OCC(C)C (single isomer, unassigned) [14-15] . Fill in?
Found: 0

Lookup: Missing value: Pre-emerge phytotoxicity rating, crop damage RICE, upland rice (Oryza sp., var. Tebonnet, RICE), entry CCCOC(=O)C(Cl)Cc1c(OC)c(Cl)cc(F)c1-n1c(=O)cc(C(F)(F)F)n(C)c1=O (single isomer, unassigned) [14-7] . Fill in?
Found: 0

Lookup: Missing value: Pre-emerge phytotoxicity rating, crop damage RICE, upland rice (Oryza sp., var. Tebonnet, RICE), entry C=CCOC(=O)C(C)(Cl)Cc1c(OC)c(Cl)cc(F)c1-n1c(=O)cc(C(F)(F)F)n(C)c1=O (centres unmarked) . Fill in?
Found: 10

Lookup: Missing value: Pre-emerge phytotoxicity rating, crop damage RICE, upland rice (Oryza sp., var. Tebonnet, RICE), entry CCCCCCOC(=O)C(Cl)Cc1c(OC)c(Cl)cc(F)c1-n1c(=O)cc(C(F)(F)F)n(C)c1=O (single isomer, unassigned) . Fill in?
Found: 0

---

# maps each entry to its phytotoxicity rating ECHCG
# Test system: barnyardgrass (Echinochloa crus-galli, ECHCG)
# Assay info: Post-emerge test, greenhouse herbicide activity screening
# Format: in vivo
# Experimental parameters: post-emerge, 250 g ai/ha, 14 days after application, rating scale 0-100
I only need the number, thanks.

| Molecule | System | phytotoxicity rating ECHCG |
| --- | --- | --- |
| COC(=O)Nc1c(OC)c(Cl)cc(F)c1-n1c(=O)cc(C(F)(F)F)n(C)c1=O [Compound 4-1] | barnyardgrass (Echinochloa crus-galli, ECHCG) | 0 |
| Cn1c(C(F)(F)F)cc(=O)n(-c2c(F)cc(Cl)c(OCC#N)c2NC(=O)CCc2ccccc2)c1=O [2-87] | barnyardgrass (Echinochloa crus-galli, ECHCG) | 50 |
| COc1c(Cl)cc(F)c(-n2c(=O)cc(C(F)(F)F)n(C)c2=O)c1NC(=O)OCc1ccc(C(C)C)cc1 [4-42] | barnyardgrass (Echinochloa crus-galli, ECHCG) | 10 |
| COc1c(Cl)cc(F)c(-n2c(=O)cc(C(F)(F)F)n(C)c2=O)c1NC(=O)OCc1ccccc1C(F)(F)F [4-33] | barnyardgrass (Echinochloa crus-galli, ECHCG) | 20 |
| COc1c(Cl)cc(F)c(-n2c(=O)cc(C(F)(F)F)n(C)c2=O)c1NC(=O)c1ccc(Br)cc1 [2-61] | barnyardgrass (Echinochloa crus-galli, ECHCG) | 70 |

Lookup: Record request: phytotoxicity rating ECHCG value, item COc1c(Cl)cc(F)c(-n2c(=O)cc(C(F)(F)F)n(C)c2=O)c1NC(=O)OCc1cccc(F)c1 [4-44]
Found: 90

Lookup: Record request: phytotoxicity rating ECHCG value, item COc1c(Cl)cc(F)c(-n2c(=O)cc(C(F)(F)F)n(C)c2=O)c1NC(=O)C=Cc1ccccc1 [2-78]
Found: 10

---

# Tested on: large crabgrass (Digitaria sanguinalis, DIGSA)
# Assay info: Post-emerge test, greenhouse herbicide activity screening
# Assay type: in vivo
# Experimental parameters: post-emerge, 250 g ai/ha, 14 days after application, rating scale 0-100
Assay metric: phytotoxicity rating DIGSA
I only need the number, thanks.

Lookup: Record request: phytotoxicity rating DIGSA value, item CCOC(=O)C(C)Oc1c(Cl)cc(F)c(-n2c(=O)cc(C(F)(F)F)n(C)c2=O)c1NC(=O)c1ccc2ccccc2c1 (stereo not shown)
Found: 0

Lookup: Record request: phytotoxicity rating DIGSA value, item Cn1c(C(F)(F)F)cc(=O)n(-c2c(F)cc(Cl)c(OCC#N)c2NC(=O)CCc2ccccc2)c1=O
Found: 50

Lookup: Record request: phytotoxicity rating DIGSA value, item COc1c(Cl)cc(F)c(-n2c(=O)cc(C(F)(F)F)n(C)c2=O)c1NC(=O)COC(C)=O
Found: 0

Lookup: Record request: phytotoxicity rating DIGSA value, item COc1c(Cl)cc(F)c(-n2c(=O)cc(C(F)(F)F)n(C)c2=O)c1NC(=O)c1cccc(Cl)c1
Found: 20

Lookup: Record request: phytotoxicity rating DIGSA value, item COc1c(Cl)cc(F)c(-n2c(=O)cc(C(F)(F)F)n(C)c2=O)c1NC(=O)OC(C)c1ccccc1 (stereo not shown)
Found: 30

Lookup: Record request: phytotoxicity rating DIGSA value, item COc1c(Cl)cc(F)c(-n2c(=O)cc(C(F)(F)F)n(C)c2=O)c1N(C(=O)c1ccc(C(F)(F)F)cc1)C(=O)c1ccc(C(F)(F)F)cc1
Found: 30

Lookup: Record request: phytotoxicity rating DIGSA value, item COc1c(Cl)cc(F)c(-n2c(=S)cc(C(F)(F)F)n(C)c2=O)c1NC(=S)c1ccc(F)cc1F
Found: 0

---

# Tested on: redroot pigweed (Amaranthus retroflexus, AMARE)
# Assay info: Pre-emerge test, greenhouse herbicide activity screening
# Format: in vivo
# Experimental parameters: pre-emerge, 63 g ai/ha, 14 days after application, rating scale 0-100
Assay metric: phytotoxicity rating AMARE
I only need the number, thanks.

| Compound | phytotoxicity rating AMARE |
| --- | --- |
| COc1c(Cl)cc(F)c(-n2c(=O)cc(C(F)(F)F)n(C)c2=O)c1NN=Cc1ccc2ccccc2c1 | 100 |
| COc1c(Cl)cc(F)c(-n2c(=O)cc(C(F)(F)F)n(C)c2=O)c1SCCO | 80 |
| COc1cc(Cl)cc(Cl)c1-n1c(=O)cc(C(F)(F)F)n(C)c1=O | 40 |
| COc1c(Cl)cc(F)c(-n2c(=O)cc(C(F)(F)F)n(C)c2=O)c1Sc1ccc2ccccc2c1 | 30 |
| COc1c(Cl)cc(F)c(-n2c(=O)cc(C(F)(F)F)n(C)c2=O)c1SC(C)C | 30 |
| Cn1c(C(F)(F)F)cc(=O)n(-c2ccc(Cl)cc2/C=C/c2ccc3ccccc3c2)c1=O | 0 |

Lookup: Record request: phytotoxicity rating AMARE value, item COc1c(Cl)cc(F)c(-n2c(=O)cc(C(F)(F)F)n(C)c2=O)c1NNC(=O)c1ccccc1
Found: 100

Lookup: Record request: phytotoxicity rating AMARE value, item CCOC(=O)C(Cl)Cc1c(OC)c(Cl)cc(F)c1-c1nn(C)c(C(F)(F)F)c1Cl (stereo not drawn)
Found: 100

Lookup: Record request: phytotoxicity rating AMARE value, item COc1c(Cl)cc(F)c(-n2c(=O)cc(C(F)(F)F)n(C)c2=O)c1NN=CC(C)c1ccccc1 (stereo not drawn)
Found: 100
